Tested on: IGROV1 ovarian
Test: NCI tumour cell line growth inhibition, 48 h
outcome_measure: TGI

Below: 5 compounds and their reported TGI.
{"compound": "N#CC(C#N)=C1C(C#N)=C(N)NC12OCCO2", "TGI": "> 100 µM"}
{"compound": "COC(=O)[C@H]1[C@@H](C(C)C)O[C@@H](C(C)C)O[C@H]1C(F)(F)F", "TGI": "> 100 µM"}
{"compound": "CCCCCCCCCCCCCCN", "TGI": "> 100 µM"}
{"compound": "Cc1ccc(C(=O)N/N=C(\\N=Nc2cccc(Cl)c2)c2ccc(N(CCC#N)CCC#N)cc2C)cc1", "TGI": "> 100 µM"}
{"compound": "CC(C)=CCC[C@@H](C)C1=C(Nc2ccccc2Cl)C(O)=C(C)C(=O)C1=O", "TGI": "> 39.1 µM"}

**Query** Report TGI for CC(=O)O[C@@H]1C[C@@]23C[C@@]24CC[C@H](OC2OCC(O)C(O)C2O)C(C)(C)[C@@H]4CC=C3[C@]2(C)C[C@@H]3OC4(C[C@@H](C)[C@@H]3[C@@]12C)OC(O)[C@@]1(C)O[C@@H]41 (stereo not given in full) please.
**Result** > 100 µM

**Query** Similarly, C/C(=C\c1ccccn1)c1ccccn1 ?
**Result** > 100 µM

**Query** Do the same for Cc1ccc(-c2cc(-c3ccco3)c(C#N)c(=O)[nH]2)cc1 please
**Result** > 100 µM

**Query** Field entry: COc1ccc(Nc2ncc(Br)c(NCCCNC(=O)C3CCC3)n2)cc1
**Result** 44.5 µM

**Query** Then what about the compound Nc1ncnc2c1ncn2C1CCC(COS(N)(=O)=O)C1 (stereo not given) ?
**Result** > 100 µM

====

Tested on: SK-MEL-5 melanoma
Test: NCI tumour cell line growth inhibition, 48 h
outcome_measure: GI50

Recorded results for 2 compounds are shown here.
{"smiles_str": "CN(C)c1ccc([O-])cc1.CN(C)c1ccc([O-])cc1.CN(C)c1ccc([O-])cc1.CN(C)c1ccc([O-])cc1.[Ti+4]", "outcome_measure": "GI50", "endpoint_result": "51.5 µM"}
{"smiles_str": "CCC(=O)O[C@H]1CC[C@H]2[C@@H]3CC[C@H]4CC(=O)[C@H](C)C[C@]4(C)[C@H]3CC[C@]12C", "outcome_measure": "GI50", "endpoint_result": "5.89 µM"}

**Query** GI50 of COc1ccc(Nc2ncc(Br)c(NCCCNC(=O)C3CCC3)n2)cc1 on SK-MEL-5 melanoma?
**Result** 13 µM

**Query** Queued: C/C(=N\O)c1cccc(Nc2cc(-n3ccnn3)c3ccccc3n2)c1
**Result** 13.4 µM

**Query** And what about the compound O=C(c1ccc2ccccc2c1)c1c(C(F)(F)F)n([O-])c2cc(F)c(F)cc2[n+]1=O ?
**Result** 4.84 µM

====

The compounds listed here are annotated with their TGI.
Test system: SNB-75 CNS
Assay: NCI tumour cell line growth inhibition, 48 h
Write it as a number; the unit µM goes unstated.

Illustrative cases are given below, each with its answer.
{"smiles_str": "Clc1ccc(Cc2nc3ccccc3nc2-c2cccc(Br)c2)cc1", "TGI / µM": 35.7}
{"smiles_str": "O=Nc1c(-c2c(O)[nH]c3ccc([N+](=O)[O-])cc23)[nH]c2ccc(O)cc12", "TGI / µM": 3.64}
{"smiles_str": "COc1cc2nc(-c3ccc4ccccc4c3)[nH]c(=O)c2cc1OC", "TGI / µM": 58.3}
{"smiles_str": "CN1CCN(c2c(Cl)cc(Cl)c3[nH]c4ccccc4c(=O)c23)CC1", "TGI / µM": 22.5}
{"smiles_str": "COc1ccc(-c2oc3c(OC)c(OC)c(OC)c(O)c3c(=O)c2OC)cc1OC", "TGI / µM": 13.2}

**Query** Find the recorded TGI belonging to COc1ccc2c(c1)C(=O)c1c-2n(CCCN=[N+]=[N-])c(=O)c2cc(N(C)C)ccc12 and report it.
**Result** 56.2

====

System: NCI-H23 lung
Experiment: NCI tumour cell line growth inhibition, 48 h
outcome_measure: TGI

{"smiles_str": "O=C([CH-]C(=O)c1ccccc1)c1ccccc1.O=C([CH-]C(=O)c1ccccc1)c1ccccc1.O=C([CH-]C(=O)c1ccccc1)c1ccccc1.[Nd+3].[OH3+]", "endpoint_result": "13.3 µM"}
{"smiles_str": "CCCCc1cc2c(C)cc(=O)oc2c(O)c1O", "endpoint_result": "> 100 µM"}
{"smiles_str": "C=C1SC(=Nc2c(C)cc(C)cc2C)N(C(=O)c2sc3ccccc3c2Cl)C12CCCCC2", "endpoint_result": "> 100 µM"}
{"smiles_str": "CCCn1c(SC)nc(COC(=O)NC)c1COC(=O)NC", "endpoint_result": "> 100 µM"}

**Query** Look up TGI for this compound: C=CCN(/C=C1/C(=O)O[C@H](COC)[C@@]2(C)C1=C(O)C(=O)C1=C2[C@H](OC(C)=O)C[C@]2(C)C(=O)CC[C@@H]12)CC=C
**Result** > 10 µM

**Query** Next record, please: O=C(Nc1cccs1)c1c(O)[nH]c(=S)[nH]c1=O
**Result** > 100 µM

**Query** // query: CN(C)c1ccc([O-])cc1.CN(C)c1ccc([O-])cc1.CN(C)c1ccc([O-])cc1.CN(C)c1ccc([O-])cc1.[Ti+4]
**Result** > 100 µM

**Query** // next record CCc1cccc(C(C)C)c1NC(=O)C(=O)CC(=O)c1c(C)n([O-])c2ccccc2[n+]1=O
**Result** > 100 µM

====

Test system: M14 melanoma
Experiment: NCI tumour cell line growth inhibition, 48 h; in the data active = GI50 below about 0.43 µM; inactive = the rest
One label from this list, please: YES (active), NO (inactive)

Completed entries (count: 2):
{"compound": "C=CCN(/C=C1/C(=O)O[C@H](COC)[C@@]2(C)C1=C(O)C(=O)C1=C2[C@H](OC(C)=O)C[C@]2(C)C(=O)CC[C@@H]12)CC=C", "cat": "NO"}
{"compound": "CCn1c(C(=O)N(C2CC2)C2CC2)cc2c3c(ncn3C)c(Nc3cc(C)n(C)n3)nc21", "cat": "NO"}

**Query** Field: outcome | Entry: CCCCCCCNc1nc(C(=O)OCC)ncc1-c1ccc(C(F)(F)F)cc1
**Result** NO

**Query** Next record, please: C[C@H](NC(=O)[C@@H]1CSSC[C@@H](NC(=O)c2nc3ccccc3cc2O)C(=O)NCC(=O)N1C)c1ccccc1
**Result** YES

**Query** Let us now turn to O=C([CH-]C(=O)c1ccccc1)c1ccccc1.O=C([CH-]C(=O)c1ccccc1)c1ccccc1.O=C([CH-]C(=O)c1ccccc1)c1ccccc1.[Nd+3].[OH3+]
**Result** NO

**Query** Continue with Cc1cc(/C=C\c2ccc3ccccc3[n+]2C)c(O)c2ncccc12
**Result** YES

**Query** How about this compound: O=[N+]([O-])c1ccc(S(=O)Cc2ccccc2)c([N+](=O)[O-])c1 (centres undefined)
**Result** NO

**Query** Please give the result for COc1ccccc1/C=C/[N+](=O)[O-] too.
**Result** NO

**Query** Now give it for Cc1ccc(/C(=N\N=C(N)N)c2ccccc2)cc1 too.
**Result** YES

====

Tested on: ACHN renal
Experiment: NCI tumour cell line growth inhibition, 48 h
outcome_measure: GI50

**Query** Item COc1ccc2c(c1)/C(=C\c1cccnc1)C(=O)N2 has what recorded GI50?
**Result** 18500 nM

**Query** Queued: CCn1c(C(=O)N(C2CC2)C2CC2)cc2c3c(ncn3C)c(Nc3cc(C)n(C)n3)nc21
**Result** > 100000 nM

**Query** Try this compound next: COc1ccc(N2Cc3cnc(Nc4ccccc4)nc3N([C@@H]3CC[C@@H](O)C3)C2=O)cc1
**Result** 984 nM

**Query** Would you kindly repeat that for CCN(CC)CCNc1ccc([N+](=O)[O-])c2sc3ccccc3c(=O)c12 ?
**Result** 646 nM

**Query** Now the same for COc1ccc(-c2nc3sc(-c4ccc(Cl)cc4)cn3n2)cc1
**Result** 927 nM

**Query** Also, Cc1ccc(/C(=N\N=C(N)N)c2ccccc2)cc1 please.
**Result** 777 nM

**Query** Repeat with C[C@H](NC(=O)[C@@H]1CSSC[C@@H](NC(=O)c2nc3ccccc3cc2O)C(=O)NCC(=O)N1C)c1ccccc1
**Result** 4630 nM

====

Test system: OVCAR-5 ovarian
Test: NCI tumour cell line growth inhibition, 48 h
Catalogue of GI50 values

{"compound": "C=CCN(/C=C1/C(=O)O[C@H](COC)[C@@]2(C)C1=C(O)C(=O)C1=C2[C@H](OC(C)=O)C[C@]2(C)C(=O)CC[C@@H]12)CC=C", "GI50": "1.08 µM"}
{"compound": "CC(C)CNCC(O)COc1ccc(C(C)(C)c2ccc(OCC(O)CNCC(C)C)cc2)cc1 (stereo not drawn)", "GI50": "6.1 µM"}

Read the next record carefully.
**Query** // map COc1ccc2c(c1)/C(=C\c1cccnc1)C(=O)N2 to recorded GI50 (system: OVCAR-5 ovarian)
**Result** 24.3 µM
